Below: a set of entries, each annotated with reported remaining parasite growth % (stronger effect = lower value).
Experiment: qHTS profiling for inhibitors of Plasmodium falciparum (3D7) proliferation (AID 743322);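 further: infected erythrocytes exposed to compound for 72 h before lysis; 100% = DMSO vehicle wells and 0% = 0.29 µM artemisinin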
Settings: P. falciparum 3D7 proliferation; at 28.7 µM (top of the series)
# unit: % | format: bare number

Solved cases below.
O=C([C@H](Cc1ccc(O[S+](=O)([O-])c2cccc3cnccc23)cc1)N[S+](=O)([O-])c1cccnc1)N1CCN(c2ccccc2)CC1 ... -1.25
O=C([C@H](Cc1ccc(O[S+](=O)([O-])c2cccnc2)cc1)N[S+](=O)([O-])c1cccnc1)N1CCN(c2ccccc2)CC1 ... 15.8

Input line: Item CS(=O)(=O)c1ccc(-c2cnc(N)c(-c3ccc(C(F)(F)F)nc3)c2)cc1 : provide remaining parasite growth % (stronger effect = lower value)
Output line: 2.16

Input line: Fill in remaining parasite growth % (stronger effect = lower value) for record O=C([C@H](Cc1ccc(O[S+](=O)([O-])c2cccc3cccnc23)cc1)N[S+](=O)([O-])c1ccccn1)N1CCN(c2ccccc2)CC1
Output line: -1.21

Input line: Return the recorded remaining parasite growth % (stronger effect = lower value) value; entry: O=CN(O)CCCP(=O)(O)O
Output line: 11.2

Input line: In one line, give reported remaining parasite growth % (stronger effect = lower value) of the entry CO[C@@]12[C@H](COC(N)=O)C3=C(C(=O)C(C)=C(N)C3=O)N1C[C@H]1N[C@H]12 .
Output line: -0.57

Input line: Check the records and state remaining parasite growth % (stronger effect = lower value) for O=C([C@H](Cc1ccc(O[S+](=O)([O-])c2ccccn2)cc1)N[S+](=O)([O-])c1cccnc1)N1CCN(c2ccccc2)CC1
Output line: 17.8

Input line: Specify remaining parasite growth % (stronger effect = lower value) for CC(C)(C)OC(=O)N[C@@H](Cc1ccc(O[S+](=O)([O-])c2cccc3cccnc23)cc1)C(=O)N1CCN(c2ccccc2)CC1 and stop.
Output line: -0.907

###

Biological target: Cytochrome P450 2C9 (Homo sapiens) (UniProt P11712)
Sequence (P11712 whole entry, looked up): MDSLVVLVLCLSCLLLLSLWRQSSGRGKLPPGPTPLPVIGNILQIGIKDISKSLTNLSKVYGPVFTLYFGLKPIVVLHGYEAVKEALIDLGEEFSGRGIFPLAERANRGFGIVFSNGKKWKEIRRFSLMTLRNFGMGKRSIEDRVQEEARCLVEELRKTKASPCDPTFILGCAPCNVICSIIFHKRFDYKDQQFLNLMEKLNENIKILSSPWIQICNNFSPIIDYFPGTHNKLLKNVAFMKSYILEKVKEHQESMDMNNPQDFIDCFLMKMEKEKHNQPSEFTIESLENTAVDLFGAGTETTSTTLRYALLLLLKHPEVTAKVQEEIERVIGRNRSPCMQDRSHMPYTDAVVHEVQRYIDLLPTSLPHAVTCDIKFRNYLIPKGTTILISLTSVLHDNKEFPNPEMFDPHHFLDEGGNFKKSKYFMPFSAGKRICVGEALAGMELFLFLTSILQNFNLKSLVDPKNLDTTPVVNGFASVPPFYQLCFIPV
Test: qHTS Assay for Inhibitors and Substrates of Cytochrome P450 2C9 (AID 883); further: on the % scale 0 is the no-effect control and ±100 the full control effect; nearly all actives have a fitted effect of over 60% in size
Details: recombinant CYP2C9, luciferin-H luminescence, 60 min; series mostly up to 11.4 µM
Results filed as inconclusive are left out. Active and inactive are the calls of the source. Calls come from the whole dose curve; as a rule, active = well fitted inhibition curve with a large enough effect; inconclusive = small, poorly fitted or top-dose-only effect; inactive = no such curve, though single readings can be large or run the other way.
Just give me one of these, please: y (active), n (inactive)

COC(=O)NC(c1cccc(C)c1)[C@@]1(C(=O)OC)CCCC1=O (stereo partly specified) ... n

Input line: In this assay, the call recorded for O=C(/C=C/c1ccccc1)N1CCCC1CO (stereo unspecified) was what?
Output line: n

###

Target: Tyrosine-protein kinase Yes (Homo sapiens) (UniProt P07947)
Sequence (P07947 whole entry, looked up): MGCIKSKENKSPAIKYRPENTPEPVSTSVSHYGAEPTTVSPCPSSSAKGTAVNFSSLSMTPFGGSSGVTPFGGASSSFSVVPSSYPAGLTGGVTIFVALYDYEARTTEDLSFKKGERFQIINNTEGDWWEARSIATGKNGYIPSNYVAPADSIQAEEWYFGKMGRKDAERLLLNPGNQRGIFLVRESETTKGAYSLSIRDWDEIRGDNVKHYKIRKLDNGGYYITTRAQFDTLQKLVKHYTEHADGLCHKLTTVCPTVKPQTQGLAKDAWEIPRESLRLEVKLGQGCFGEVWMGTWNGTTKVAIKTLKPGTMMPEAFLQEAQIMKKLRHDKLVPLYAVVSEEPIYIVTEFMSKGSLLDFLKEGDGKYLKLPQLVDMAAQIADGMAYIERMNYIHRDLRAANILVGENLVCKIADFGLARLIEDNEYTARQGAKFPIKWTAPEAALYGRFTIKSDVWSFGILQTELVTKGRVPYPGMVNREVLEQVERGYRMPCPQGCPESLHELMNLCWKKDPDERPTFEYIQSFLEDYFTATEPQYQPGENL
Assay: qHTS for small molecule inhibitors of Yes1 kinase: Primary Screen (AID 686947); further: nearly all actives have a fitted effect of over 60% in size
Conditions: Yes1 kinase biochemical qHTS inhibition; series mostly up to 76.9 µM
Excerpt: The Src family of non-receptor protein tyrosine kinases contains nine members, including Yes1, Src, Fyn, Lyn, and […]. These kinases have important roles in a variety of cellular functions, such as cell proliferation, survival, and differentiation. Src, the most well characterized member of this family, has been previously identified as a proto-oncogene. […] In melanoma, it has been shown that Yes1, and not other family members, such as Src, is functionally involved in the malignant phenotype. […]
Results filed as inconclusive are left out. Calls of active or inactive are those of the source. Calls follow the shape of the dose curve; as a rule, active = well fitted inhibition curve with a large enough effect; inconclusive = small, poorly fitted or top-dose-only effect; inactive = no such curve, though single readings can be large or run the other way.
Form entry, call: pick from active, inactive

COc1cc2ncnc(Nc3ccc4c(cnn4Cc4ccccc4)c3)c2cc1OC ... active
Fc1ccc(Nc2nccc(-c3c(-c4ccc(C(F)(F)F)cc4)nn4ncccc34)n2)cc1F ... inactive
CCn1c(-c2nonc2N)nc2c(C#CC(C)(C)O)nc(OCCNC)cc21 ... active
COc1cccc(COc2cc(-n3cnc4ccccc43)sc2C(N)=O)c1 ... inactive

Input line: Write down the call the test reported for this compound. Item: c1ccc(COc2ccc(Nc3ncnc4ccc(-c5ccco5)cc34)cc2)cc1
Output line: active

Input line: What did the test return for Clc1ccc(-c2nn3ncccc3c2-c2ccnc(Nc3ccccc3)n2)cc1 ?
Output line: active

Input line: Recorded call for CCOc1ccc2c(-c3ccnc(Nc4cccc(C(F)(F)F)c4)n3)cnn2n1 ?
Output line: inactive

###

Molecular target: Luciferin 4-monooxygenase (Photinus pyralis)
Experiment: Biochemical firefly luciferase enzyme assay for NPC (AID 624030);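 further: purified P. pyralis luciferase at 10 nM with luciferin and ATP substrate; 0% = DMSO and -100% = full luciferase inhibition by PTC124 control; nearly all actives have a fitted effect of over 70% in size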
Details: purified P. pyralis luciferase, luminescence, 5 min; series mostly up to 58.6 µM
Records with an inconclusive call do not appear. Active and inactive are the calls of the source. Calls come from the whole dose curve; as a rule, active = well fitted inhibition curve with a large enough effect; inconclusive = small, poorly fitted or top-dose-only effect; inactive = flat fitted curve, though single readings scatter.
Quantity: outcome

CC(C)C[C@@H](NC(=O)[C@@H](COC(C)(C)C)NC(=O)[C@H](Cc1ccc(O)cc1)NC(=O)[C@@H](CO)NC(=O)[C@@H](Cc1c[nH]c2ccccc12)NC(=O)[C@@H](Cc1cnc[nH]1)NC(=O)[C@@H]1CCC(=O)N1)C(=O)N[C@H](CCCN=C(N)N)C(=O)N1CCC[C@H]1C(=O)NNC(N)=O ... inactive
CN[C@H](CC(C)C)C(=O)N[C@H]1C(=O)N[C@@H](CC(N)=O)C(=O)N[C@H]2C(=O)N[C@H]3C(=O)N[C@H](C(=O)N[C@H](C(=O)O)c4cc(O)cc(O)c4-c4cc3ccc4O)[C@H](O)c3ccc(c(Cl)c3)Oc3cc2cc(c3O[C@@H]2OC(CO)[C@@H](O)[C@H](O)[C@H]2O[C@H]2C[C@](C)(N)[C@H](O)[C@H](C)O2)Oc2ccc(cc2Cl)[C@H]1O (some centres not stated) ... inactive

###

Tested on: ATS95
Assay: qHTS profiling for inhibitors of Plasmodium falciparum proliferation (AID 504749); further: nearly all actives have a fitted effect of over 60% in size; further: potency means the concentration at half of the fitted maximal effect
Details: P. falciparum in erythrocytes, SYBR Green DNA, 72 h; series mostly up to 28.7 µM
Results filed as inconclusive are left out. The source made the active and inactive calls. Calls follow the shape of the dose curve; as a rule, active = well fitted inhibition curve with a large enough effect; inconclusive = small, poorly fitted or top-dose-only effect; inactive = flat fitted curve, though single readings scatter. Bridge positions count the residues as written; N and C are the ends. Square brackets hold non-standard residues; d marks the D form. Peptide text beside a SMILES is read from it. * marks the point of attachment. ξ: configuration not given here. ξDab(CH2SO3H) = NC(CCNCS(=O)(=O)O)C(=O)O; Heptanoyl(6-Me) = CC(C)CCCCC(=O)*; Dab = NCC[CH](N)C(=O)O
Quantity: Potency

O=C(OCC1OC(OC(=O)c2cc(O)c(O)c(OC(=O)c3cc(O)c(O)c(O)c3)c2)[C@@H](OC(=O)c2cc(O)c(O)c(OC(=O)c3cc(O)c(O)c(O)c3)c2)C(OC(=O)c2cc(O)c(O)c(OC(=O)c3cc(O)c(O)c(O)c3)c2)C1OC(=O)c1cc(O)c(O)c(OC(=O)c2cc(O)c(O)c(O)c2)c1)c1cc(O)c(O)c(OC(=O)c2cc(O)c(O)c(O)c2)c1 (stereo partly drawn) ... 2820 nM (active)
CCC(C)C1NC(=O)C(CCNCS(=O)(=O)O)NC(=O)C(NC(=O)C(CCNCS(=O)(=O)O)NC(=O)C(NC(=O)C(CCNCS(=O)(=O)O)NC(=O)CCCCC(C)C)C(C)O)CCNC(=O)C(C(C)O)NC(=O)C(CCNCS(=O)(=O)O)NC(=O)C(CCNCS(=O)(=O)O)NC(=O)C(C(C)CC)NC1=O (stereo not drawn) ({Heptanoyl(6-Me)}-[ξDab(CH2SO3H)]T[ξDab(CH2SO3H)][Dab][ξDab(CH2SO3H)]II[ξDab(CH2SO3H)][ξDab(CH2SO3H)]T; lactam 4-C; configuration not given here) ... inactive
NC(=O)CCC1NC(=O)C(Cc2ccccc2)NC(=O)C(Cc2ccc(O)cc2)NC(=O)CCSSCC(C(=O)N2CCCC2C(=O)NC(CCCN=C(N)N)C(=O)NCC(N)=O)NC(=O)C(CC(N)=O)NC1=O (stereo not drawn) ... inactive

###

Tested on: CP266
Assay: qHTS profiling for inhibitors of Plasmodium falciparum proliferation (AID 504749); further: nearly all actives have a fitted effect of over 60% in size
Details: P. falciparum in erythrocytes, SYBR Green DNA, 72 h; series mostly up to 28.7 µM
Method: NIH National Institute of Allergy and Infectious Diseases [NIAID] NIH Chemical Genomics Center [NCGC] […] Because mature erythrocytes lack DNA, only Plasmodium-derived DNA is detected. NCGC Assay Protocol Summary: The SYBR Green viability assay was adapted from a method described previously (Plouffe et al., 2008). […] The following morning, fluorescence intensity at 485(14) nm excitation and 535(25) nm emission wavelengths was measured on an EnVision (Perkin Elmer) plate reader. […]
Records with an inconclusive call do not appear. Calls of active or inactive are those of the source. Calls follow the shape of the dose curve; as a rule, active = well fitted inhibition curve with a large enough effect; inconclusive = small, poorly fitted or top-dose-only effect; inactive = flat fitted curve, though single readings scatter.
Quantity: outcome

COc1ccc(-c2nc3ccc(C4=C(C)CC(=O)NN4)cc3[nH]2)cc1 ... inactive
CCOC(=O)C(CS)NCCN[C@@H](CS)C(=O)OCC (stereo partly drawn) ... inactive
O=C1/C(=C\c2cccs2)CCC/C1=C/c1cccs1 ... inactive

###

Biological target: Cytochrome P450 3A4 (Homo sapiens) (UniProt P08684)
Sequence (P08684 whole entry, looked up): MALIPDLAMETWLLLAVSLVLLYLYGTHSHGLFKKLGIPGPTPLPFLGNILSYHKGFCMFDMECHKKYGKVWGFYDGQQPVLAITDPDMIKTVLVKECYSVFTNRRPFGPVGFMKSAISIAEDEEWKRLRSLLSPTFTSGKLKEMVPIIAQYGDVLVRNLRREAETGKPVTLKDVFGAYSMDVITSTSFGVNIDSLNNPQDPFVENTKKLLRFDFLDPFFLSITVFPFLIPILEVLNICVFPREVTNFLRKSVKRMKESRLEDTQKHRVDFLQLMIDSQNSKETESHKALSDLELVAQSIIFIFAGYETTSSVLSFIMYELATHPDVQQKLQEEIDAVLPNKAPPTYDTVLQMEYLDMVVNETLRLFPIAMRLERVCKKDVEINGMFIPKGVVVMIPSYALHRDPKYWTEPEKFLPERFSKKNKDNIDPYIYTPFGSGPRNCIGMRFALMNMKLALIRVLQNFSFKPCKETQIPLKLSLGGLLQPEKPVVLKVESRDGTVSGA
Assay: qHTS Assay for Activators of Cytochrome P450 3A4 (AID 885); further: nearly all actives have a fitted effect of over 65% in size
Conditions: recombinant CYP3A4, Luciferin-PPXE luminescence, 60 min; series mostly up to 57.1 µM
Description: NIH Molecular Libraries Screening Centers Network [MLSCN] NIH Chemical Genomics Center [NCGC] The P450 gene superfamily is involved in the metabolism and clearance of xenobiotics. […] The luciferin is then measured by luminescence after the addition of a luciferase detection reagent. […] Inhibitors and some substrates limit the production of luciferin, and decrease measured luminescence; activators increase the production of luciferin and luminescence. […]
The source made the active and inactive calls. Calls follow the shape of the dose curve; as a rule, active = well fitted activation curve with a large enough effect; inconclusive = small, poorly fitted or top-dose-only effect; inactive = no such curve, though single readings can be large or run the other way.
Quantity: activity change, positive = activation

COc1ccc(OC2C(O)COC2/C=C/C#Cc2ccccc2)cc1 (configuration not stated) ... -57.7% [at 11.4 µM] (inactive)
C=CCOC(=O)C(C(C)=O)C(NC(=O)OC)c1cccc(C)c1 (configuration not stated) ... -86.6% [at 11.4 µM] (inactive)
N#Cc1ccc(C23CC4(C2)[C@H](CN(CC2CCCCC2)[C@@H]4c2ccccc2)C3c2ccc(C(F)(F)F)cc2)cc1 (some centres not stated) ... inactive
CCCCCCN(C(=O)CCCCCN1C(=O)NC(c2ccc(-c3ccccc3)cc2)C(C(=O)OCc2ccccc2)=C1C)C(C(=O)NCCCC)c1ccc(OCC(=O)OC)cc1 (configuration not stated) ... inactive
CCCCC#CC1C=CC(Oc2cc(OC)c(OC)c(OC)c2)C(CO)O1 (configuration not stated) ... -45% [at 11.4 µM] (inactive)

Input line: Please give the documented activity change, positive = activation of C=CCOC(=O)C(C(C)=O)C(NC(=O)OC)c1cccc(F)c1 (configuration not stated)
Output line: -72.4% [at 11.4 µM] (inactive)

Input line: Dear colleague, please send me the reported activity change, positive = activation for CO[C@H]1COC(=O)[C@H](C)COC(=O)C/C=C\[C@@H](C)[C@H](OC)COC(=O)C/C=C\[C@@H]1C when you can.
Output line: -51.9% [at 11.4 µM] (inactive)

Input line: Check the records and state activity change, positive = activation for CC(=O)Oc1c(-c2ccccc2)oc2c(CC=C(C)C)c3c(c(OC(C)=O)c2c1=O)C=CC(C)(C)O3
Output line: inactive

Input line: Report activity change, positive = activation for CC1=C(C(=O)OCc2ccccc2)C(c2ccccc2-c2ccccc2)NC(=O)N1CCCCCC(=O)O (configuration not stated)
Output line: inactive

Input line: Supply reported activity change, positive = activation belonging to this compound: CC1CCC2C(=O)OC(CO)CN2C1c1ccc(Br)cc1 (configuration not stated)
Output line: -46.2% [at 11.4 µM] (inactive)

Input line: Tell us which activity change, positive = activation value is on record for COC(=O)[C@@]1(C)C=C[C@@H](Cc2ccccc2)N1C
Output line: inactive

Input line: Entry COc1cccc([C@@H]2Oc3ccc(OC)cc3/C(=N/O[C@@H](C)CN3CCCc4nc(C)c(C)cc43)[C@@H]2O)c1 needs its activity change, positive = activation filled in; supply it.
Output line: -92.2% [at 11.4 µM] (inactive)

Input line: Hello, please tell me recorded activity change, positive = activation for this one: CCC1=C(OC(=O)N(CC)CC)N2C(=O)OC(=NCC3CC3)[C@]2(C)[C@H]2C1=CC[C@H]1C(=O)NC(=O)[C@H]12
Output line: inactive

Input line: In one line, give reported activity change, positive = activation of the entry O=C1[C@H]2[C@H]3[C@H](O)[C@H](O)C/C(=N/OC[C@@H](O)COCc4ccco4)[C@H]3CC[C@@H]2C(=O)N1C1CCCCC1 .
Output line: -43.8% [at 11.4 µM] (inactive)

Input line: Please report activity change, positive = activation for the following compound: O=C(N/N=C1/C[C@@H](O)[C@@H](O)[C@@H]2[C@H]3C(=O)N(c4ccc(F)cc4F)C(=O)[C@@H]3CC[C@H]12)OCc1ccccc1
Output line: -37% [at 11.4 µM] (inactive)

Input line: State its activity change, positive = activation: CC1CCC2C(=O)N3C(CCC(C)C3c3ccccc3Br)C(=O)N2C1c1ccc(C#CCN(C)C)cc1 (configuration not stated)
Output line: -38.2% [at 11.4 µM] (inactive)

Input line: Indicate its recorded activity change, positive = activation; the compound in question is COC(=O)[C@@H]1C[C@H]2CC[C@H](O)C[C@H]2N1Cc1ccc(C(C)(C)C)cc1
Output line: inactive
